Measured melting point, listed per entry.

Known melting point results, listed for orientation:
Measured melting point, O=CNc1nc2c(s1)-c1nc(-c3ccccc3)ncc1CC2 : 304 to 306 °C

Measured melting point, N#Cc1cc(N2CCC(N3CCOCC3)CC2)ccc1N : 178 to 180 °C

Measured melting point, CCCCCSc1cccc(-c2nc(=O)c3ccccc3s2)n1 : 105 °C

Measured melting point, COC(=O)C1=Cc2ccc(OCc3nc(-c4ccccc4)oc3C)cc2CC1 : 130 to 131 °C

Measured melting point, CCCCNC(=O)NCc1ccc(Nc2n[nH]c3ncnc(Nc4cccc(Cl)c4)c23)cc1 : 217 to 218 °C

Measured melting point, CC(C=CC=C(C)c1cc2c(s1)C(C)(C)CCC2(C)C)=CC(=O)O : 226 to 228 °C

Measured melting point, CCCCN(CCCC)C(=O)NCCc1ccc(-c2csc(NC(=O)OC(C)(C)C)n2)cc1 : 70 to 75 °C

Measured melting point, Cc1cc2c(cc1F)C(C)(C)CCC2(C)C : 90 to 91.8 °C

Next:
Measured melting point, ClCCN(CCCl)CCOc1ccc(Nc2c3ccccc3nc3c(OCCN(CCCl)CCCl)cccc23)cc1 : 105 to 106 °C

Measured melting point, Cc1nc(C(C)C)c(Sc2cccc(Cl)c2)[nH]1 : 91 to 94 °C

Measured melting point, O=C1CCC(c2ccc(NC(=O)C3CC3)cc2)=NN1 : 272 to 273 °C

Measured melting point, O=C(O)c1ccc(OCCNC(=O)C2Cc3ccccc3N2S(=O)(=O)c2ccc(-c3cc(C(F)(F)F)ccc3Cl)cc2)cc1 (stereo not drawn) : 117 to 121 °C

Measured melting point, COc1nc(C(F)(F)F)cc(=O)n1-c1ccc(Cl)c(C(=O)O)c1 : 265 to 268 °C

Measured melting point, COC1(c2cc(F)cc(Sc3ccc(/C(C)=N/O)c(OCc4ccccc4)c3)c2)CCOCC1 : 130 to 131 °C

Measured melting point, Oc1ccc2c3c1OC1C(O)CCC4(F)C(C2)N(CC2CCC2)CCC314 (stereo not drawn) : 236 to 239 °C

Measured melting point, Cn1c(C=NNCCO)cnc1[N+](=O)[O-] : 138 to 140 °C

----------
Measured melting point, listed per entry.

Measured melting point, CN(CCOc1ccc(CC2SC(=O)NC2=O)cc1)C(=O)c1ccccc1 (centres undefined) : 139 to 142 °C

Measured melting point, C[Si](C)(C)O[C@H]1C=C(S(=O)(=O)c2ccccc2)C=CCC1 : 61.9 to 63.8 °C

Measured melting point, CC1CN(c2cc3c(cc2F)C(=O)c2nc4ccccc4c(=O)n2-3)CCN1 (centres undefined) : 225 to 227 °C

Note: attention shifts to another entry.
Measured melting point, Cn1ncc2[nH]c3ccc(Cc4ccccc4C(N)=O)cc3c(=O)c21 : 272 °C

----------
Measured melting point, listed per entry.

Known melting point results, listed for orientation:
Measured melting point, O=C(O)c1cccn1Cc1ccco1 : 117 to 118 °C

Measured melting point, CC(=O)c1c[nH]c(-c2ccc(O)cc2)n1 : 254 to 259 °C

Measured melting point, O=C(CCl)NC1CCCc2sccc21 (stereo unspecified) : 115 to 119 °C

Next:
Measured melting point, CCn1c2cc(C=O)ccc2c2c3ccccc3ccc21 : 148 to 149 °C

Measured melting point, CC(C)(O)C#Cc1ncn2c1[C@@H]1CCCN1C(=O)c1c(Br)cccc1-2 : 227 to 228 °C

Measured melting point, Cc1c(C)c(N2C(=O)c3ccccc3C2=O)c(C)c2c1OC(C)(C)C2c1ccc(C(C)C)cc1 (stereo unspecified) : 180 to 181 °C

----------
OBSERVED PROPERTY: melting point

Known melting point results, listed for orientation:
Measured melting point, CCCCOC(=O)NCCC(=O)O : 50.5 °C

Measured melting point, COc1cccc(C(=O)C=CC2=CCC(OC)(N(C)C)C=C2)c1OC (stereo not drawn) : 168 to 169 °C

Next:
Measured melting point, N#CC(N)=C(C#N)N=C=CCc1cnn(-c2c(Cl)cc(C(F)(F)F)cc2Cl)n1 : 207 to 209 °C

----------
Measured melting point, listed per entry.

Measured melting point, Nc1cc(Br)ccc1C(=O)NCc1ccc(Br)cc1F : 143 to 144 °C

Measured melting point, CCOC(=O)c1sc2cc(OCc3ccccc3)ccc2c1Sc1ccccc1 : 96 to 97 °C

Note: attention shifts to another entry.
Measured melting point, O=C(O)CCCCCCCCCCCCCCCCC(=O)n1nnc2ccccc21 : 105 °C

----------
Measured melting point, listed per entry.

Known melting point results, listed for orientation:
Measured melting point, C=C(c1ccccc1OC(C)c1ccccc1)n1ccnc1 (stereo unspecified) : 172 to 174 °C

Measured melting point, CC(C)n1nc(-c2sc(C(=O)NN(C)C)nc2-c2ccc(F)cc2)ccc1=O : 169 to 170 °C

Measured melting point, CNc1nc(C)c(C)cc1NC(=O)N1CCN(c2cc(OC)cc(OC)c2)CC1 : 150 to 151 °C

Next:
Measured melting point, COc1ccc2c3c([nH]c2c1)CCC(N(C)C)C3 (stereo unspecified) : 100 to 105 °C

Measured melting point, COc1ccc2c(c1)C(=O)c1c-2c(NCCCN(C)C)nc2ccccc12 : 113 to 114 °C

Measured melting point, O=C1CCC(c2ccc(NC(=O)C3(Cl)CC3)cc2)=NN1 : 231 to 232 °C

----------
Measured melting point, listed per entry.

Known melting point results, listed for orientation:
Measured melting point, C=CCNC(=S)Cc1ccccn1 : 67 to 68 °C

Measured melting point, CC(C)c1ccc2c(c1)c(Sc1ccccc1C(C)C)c(CC(C)(C)C(=O)O)n2Cc1ccc(Cl)cc1 : 142 to 143 °C

Note: attention shifts to another entry.
Measured melting point, Cc1cc2c(cc1Cl)C=C(C(=O)O)C(C(F)(F)F)O2 (stereo not drawn) : 208 to 209 °C

----------
OBSERVED PROPERTY: melting point

Known melting point results, listed for orientation:
Measured melting point, Cn1cncc1C(O)(c1ccc(C=NO)cc1)c1ccc2[nH]c(=O)cc(-c3cccc(Cl)c3)c2c1 (stereo not drawn) : 230 °C

Measured melting point, O=C1c2ccccc2C(=O)N1Cc1ncc(C(F)(F)F)cc1Cl : 145 to 146 °C

Measured melting point, COc1cc(C(=O)c2ccccc2F)ccc1OCc1ccccc1 : 118 to 120 °C

Measured melting point, BrCc1cc(I)cc(I)c1I : 120 to 121 °C

Measured melting point, CC1C(=O)N2CCCC(C(=O)OC(C)(C)C)N2C1=O (stereo not drawn) : 127 to 128 °C

Measured melting point, Oc1cccnc1SCc1ccccc1 : 103 to 104 °C

Note: attention shifts to another entry.
Measured melting point, CC(=O)Nc1ccccc1NS(=O)(=O)c1cc(C(=O)O)cc(NCc2ccccc2)c1Oc1ccccc1 : 197 to 200 °C

----------
Measured melting point, listed per entry.

Measured melting point, CN1CCN(c2nc3c(cc2F)c(=O)c(C(=O)O)cn3CCF)CC1 : 224 to 226 °C

Measured melting point, O=C(OCc1ccc(OCCCCCCc2ccc(Cl)cc2)cc1)c1cccnc1 : 56 to 57 °C

Measured melting point, CC(C(=O)O)c1ccc(-n2cc(Cl)cn2)cc1 (stereo not given) : 152 to 153 °C

Measured melting point, C=CCN(C(C)=O)c1cccc(-c2ccc3nnc(C)n3n2)c1 : 114 to 115 °C

Measured melting point, O=C(O)c1ccc(F)cc1Sc1ccccc1 : 193 to 200 °C

Next:
Measured melting point, C=C(C)Cc1c(C)c(NC(C)=O)c(C)c(C)c1O : 209 to 210 °C

Measured melting point, COC(=O)c1c(Cc2ccc(C(=O)NCCO)cc2)c(=O)c2ccc(Cl)cc2n1-c1ccccc1 : 162 to 164 °C

Measured melting point, CC(C)(C)OC(=O)/C(C#N)=C/c1cccc2ccccc12 : 51 to 53 °C

Measured melting point, CCc1nc(-c2ccc(OCCn3ccnc3)cc2)no1 : 81 to 82 °C

Measured melting point, CCOCc1c2c(cc3c(=O)cc(C(=O)O)oc13)CCCC2 : 239 °C

----------
Measured melting point, listed per entry.

Known melting point results, listed for orientation:
Measured melting point, CC(C)(C)OC(=O)NC(Cc1ccccc1)C(=O)Nc1nc(CC(=O)O)cs1 (stereo not given) : 189 to 190 °C

Measured melting point, CS(=O)(=O)OCCCc1ccccc1OCc1coc(/C=C/c2ccccc2)n1 : 93 to 94 °C

Measured melting point, COc1cc(C=CC(=O)CCCO)cc(OC)c1 : 74 to 77 °C

Measured melting point, CN(Cc1coc(C=Cc2ccc(C(F)(F)F)cc2)n1)c1ccc(CCCCn2ccnn2)cc1 : 112 to 114 °C

Measured melting point, O=C1NC(=O)C(Nc2ccc(CCNCC(O)COc3ccc(OCc4ccccc4)cc3)cc2)S1 (stereo not given) : 152 °C

Measured melting point, Cc1cc2c(cc1C(=O)N=C(N)N)S(=O)(=O)CC2(C)O (stereo not given) : 243 to 245 °C

Measured melting point, CCSc1c(O)ccc2[nH]ncc12 : 116 °C

Measured melting point, O=C(O)c1cccc(-c2ccc3c(c2)N(Cc2ccc(Cl)cc2Cl)CC3)c1 : 175 to 176 °C

Measured melting point, CC(=O)NC12CCCC(C1)C1CCC2C1 (stereo not given) : 138 to 139 °C

Measured melting point, O=C(NNC(=O)c1ccccc1C(F)(F)F)c1ccccc1F : 171 to 173 °C

Next:
Measured melting point, CCCCCCCNC(=O)Nc1ccc(N)cc1C(=O)NC1CCN(C(c2ccccc2)c2ccccc2)CC1 : 190 to 192 °C

Measured melting point, COc1ccc(S(=O)(=O)N(C)CP(=O)(O)O)cc1N : 218 to 220 °C

Hello, the source for this data is a melting point compilation (Tetko et al.; mined from patent text by program, amines drawn as free bases though some values may be those of a salt), in case you need it.
